tested on: Escherichia coli; test: Antibacterial activity against wild type Escherichia coli ATCC 25922 assessed as inhibition of bacterial growth measured after 16 to 20 hrs; assay type: functional; conditions: time 16-20 hrs
Quick reference for MIC among some molecules

CCCCCCc1ccc(-c2ccc([S@](=N)(=O)N3CCC[C@H]3C(=O)N[C@H](C(=O)N[C@@H](C)C(=O)NC(CC(N)=O)C(=O)N[C@@H](C)B3O[C@@H]4C[C@H]5C[C@H](C5(C)C)[C@]4(C)O3)[C@@H](C)O)cc2)cc1 (mixture of isomers) :: > 64 mg/L

Need MIC, item CCCCCCCCCCCCS(=O)(=O)N1CCC[C@H]1C(=O)N[C@H](C(=O)N[C@@H](C)C(=O)NC(CC(N)=O)C(=O)N[C@@H](C)B1O[C@@H]2C[C@H]3C[C@H](C3(C)C)[C@]2(C)O1)[C@@H](C)O (mixture of isomers)
> 64 mg/L

How about CCCCCCc1ccc(-c2ccc([S@@](=N)(=O)N3CCC[C@H]3C(=O)N[C@H](C(=O)N[C@@H](C)C(=O)NC(CC(N)=O)C(=O)N[C@@H](C)B3O[C@@H]4C[C@H]5C[C@H](C5(C)C)[C@]4(C)O3)[C@@H](C)O)cc2)cc1 (mixture of isomers) ?
> 64 mg/L

// same read-out, input: CCCCCCc1ccc(-c2ccc(S(=O)(=NCCN)N3CCC[C@H]3C(=O)N[C@H](C(=O)N[C@@H](C)C(=O)NC(CC(N)=O)C(=O)N[C@@H](C)B3O[C@@H]4C[C@H]5C[C@H](C5(C)C)[C@]4(C)O3)[C@@H](C)O)cc2)cc1 (stereo not given in full)
64 mg/L

Try CCCCCCc1ccc(-c2ccc(S(=O)(=O)N3CCC[C@H]3C(=O)N[C@H](C(=O)N[C@@H](C)C(=O)NC(CC(N)=O)C(=O)N[C@@H](C)B3O[C@@H]4C[C@H]5C[C@H](C5(C)C)[C@]4(C)O3)[C@@H](C)O)cc2)cc1 (mixture of isomers) next.
> 64 mg/L
